The reader will find reported growth inhibition values listed item by item below.
# protocol_summary: NCI Yeast Anticancer Drug Screen. Data for the rad50 strain (AID 155);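 note: 0% = growth of vehicle-only cultures of the same strain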
# conditions_used: S. cerevisiae rad50 strain growth inhibition; at 50.0 µM; active compounds read high
The panel holds about 79,000 compounds, 15% with a hit somewhere; the sample as a whole holds those more often.
Report the figure in % without appending any unit label.

So what's the measured growth inhibition for this one? O=[N+]([O-])c1ccc(C(O)(C#CCN2CCCC2)c2ccccc2)cc1 (centres undefined) 20.5

Need growth inhibition, item ClC1(c2ccccc2)c2ccccc2C(Cl)(c2ccccc2)c2ccccc21 (centres undefined) 17.9

Reported growth inhibition, compound COc1cccc(NC(=O)CC(=O)N/N=C/c2ccc(N(CCC#N)CCC#N)c(I)c2)c1 : ____ 29.6

State the recorded growth inhibition for this entry: CC1c2c(cc(=O)n(Cc3ccccc3)c2O)C(=O)N1Cc1ccccc1 (centres undefined) -12.6

What value of growth inhibition has been recorded for this entry: CCC/C(=N/NC(N)=O)c1ccco1 -2.85

Which growth inhibition is reported for this compound? COc1ccc(C(C)=O)c(O)c1OC -3.3

More entries:
State the recorded growth inhibition for this entry: CN(C)c1cc(N(C)C)c2cc(C#N)ccc2n1 15.4

Consider the compound shown here: CCCC(=O)Nc1ccccc1OC What is its recorded growth inhibition? 12.8

* * *

# protocol_summary: NCI Yeast Anticancer Drug Screen. Data for the sgs1 mgt1 strain (AID 161);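 note: 0% = growth of cultures given vehicle only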
# conditions_used: S. cerevisiae sgs1 mgt1 strain, at 50.0 µM, active compounds read high
The panel holds about 79,000 compounds, 15% with a hit somewhere; the sample as a whole holds those more often.
// reported growth inhibition for each item listed
Just the number please, in %, no unit attached.

Known growth inhibition results, listed for orientation:
Look up growth inhibition: O=C1NC(=O)c2ccc(Br)c3cccc1c23 16.1

// returns reported growth inhibition for input O=C(Nc1ccccc1F)OCCCl 6.55

Param item = COC(=O)c1ccccc1N=NNc1ccc(C(F)(F)F)c([N+](=O)[O-])c1 ; retrieve measured growth inhibition. 16.1

Record request: growth inhibition value, item CC(=O)NC1CCCCC1C1CCC([N+](=O)[O-])CC1 (stereo not drawn) -12.5

# query: growth inhibition of entry Nc1cc(=O)n(-c2ccccc2)[nH]1 -6.8

Name the recorded growth inhibition for CCOC(=O)Cc1csc(N=Nc2c(O)[nH]c3ccccc23)n1 . 10.6

---
Reported growth inhibition for COC(OC)C1OC(C)(C)OC1C(OS(=O)(=O)c1ccc(C)cc1)C1COC(C)(C)O1 (stereo not drawn) : what is it? 6.45

Report growth inhibition for COC(=O)c1cc(C(=O)OC)c(C/C(=N/NC(N)=S)C(=O)Nc2ccc(Cl)c(Cl)c2)nc1C/C(=N/NC(N)=S)C(=O)Nc1ccc(Cl)c(Cl)c1 please. 7.1

Tell me the measured growth inhibition of OC1c2ccccc2-c2ccc(NCc3ccc4c(c3)OCO4)cc21 (stereo not drawn) , please. 17.4

State the recorded growth inhibition for this entry: O=C1c2ccccc2C(=O)N1/N=C\c1ccc(O)cc1 7.6

Consider the compound shown here: O=C(O)Cn1ccc(=O)c2ccc([N+](=O)[O-])cc21 What is its recorded growth inhibition? 13.7

// returns reported growth inhibition for input COC(=O)/C=C\CC(=O)OC -19.9

Which growth inhibition value belongs to O=C(c1nc2ccccc2[nH]1)N1CCN(c2ccccc2)CC1 ? -9

Param item = Cc1nc(Nc2ccc(Cl)cc2)c2cnn(-c3ccccc3)c2n1 ; retrieve measured growth inhibition. -8

Returns the measured growth inhibition for the input compound. Input: NC(=O)Cc1csc(Br)n1 -6.2

# get_value(readout='growth inhibition', item= C(=N\NC1=NCCCCN1)/c1ccc2ccccc2c1 ) -32

Look up growth inhibition for this compound: C[N+](C)(C)CCc1ccccc1 -0.85

Fill in the blank: the reported growth inhibition of OCCCc1ccccc1 is ____. -2.55

Entry Nc1ncnc2c(C3OC(CO)C(O)C3O)nsc12 (stereo not drawn) has what growth inhibition? -37.1

Report growth inhibition for Cc1ccc(S(=O)(=O)N/N=C/c2cc([N+](=O)[O-])ccc2O)cc1 please. 10.1

Record request: growth inhibition value, item CC(O)c1ccc2c(c1)Nc1ccccc1S2 (stereo not drawn) -16.4

Look up growth inhibition for this compound: O=C(O)c1cccc(NC(=O)C(F)(F)F)c1 -18.9

Which growth inhibition is listed for Cc1cc(NC(=O)NC(=O)c2ccccc2N(C)C)ccc1Oc1ncc(Br)cn1 ? -13.3

Endpoint output: growth inhibition of COC(=O)CCC(=O)O . Value? 11.2

* * *

Each entry below carries its reported growth inhibition.
# protocol_summary: NCI Yeast Anticancer Drug Screen. Data for the cln2 rad14 strain (AID 165);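 note: 0% = growth equal to vehicle treated cultures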
# conditions_used: S. cerevisiae cln2 rad14 strain, at 50.0 µM, active compounds read high
Compounds without any hit were thinned out: in the full panel of roughly 79,000, 15% have a hit.
Your answer should be a plain number; it is taken to be in %.

Below, each entry is followed by its recorded growth inhibition result.
Form field: reported growth inhibition of CNCC(OC)OC 16.1

Any idea what growth inhibition was measured for O=c1cc(-c2cccs2)ss1 ? -34.6

Need growth inhibition, item CCOC(=O)/C(C#N)=C/NC(N)=O -10

Sample COc1cc2c3c(c1)nc(C)n3C(=O)C(c1ccccc1)S2 (centres undefined) — what was its growth inhibition? 4.1

If you can, please state the reported growth inhibition value of F[B-](F)(F)[NH2+]c1ccc(-c2ccc([NH2+][B-](F)(F)F)c(Cl)c2)cc1Cl . 38

Further cases:
Quick one: growth inhibition for CCOc1ccccc1NCN1C(=O)c2ccccc2C1=O ? -8.65

Recorded growth inhibition for NC(=O)C(=O)N/N=C1/c2ccccc2CC1C1(O)C(=O)Nc2c(Cl)cc(Cl)cc21 (centres undefined) , please? 16.6

Param item = CN(C(=O)/C=C/c1ccccc1)c1ccccc1 ; retrieve measured growth inhibition. 27.1

Look up growth inhibition for this compound: C/C(=C1\C(=O)Nc2ccccc21)c1cccnc1 11.3

Entry under review: CCCCCc1cc[n+](CC(=O)c2ccccc2)cc1 . Reported growth inhibition? -62.7

* * *

# protocol_summary: NCI Yeast Anticancer Drug Screen. Data for the mec2-1 strain (AID 157)
# conditions_used: S. cerevisiae mec2-1 strain, at 50.0 µM, active compounds read high
# Procedure: Growth inhibition of yeast strains with defined genetic alterations is measured as a screen for potential anti-cancer activity. Selected strains with alterations in DNA damage repair or cell cycle control were exposed to compounds and growth inhibition was measured relative to vehicle treated controls. The strain used in this assay is mec2-1
Compounds without any hit were thinned out: in the full panel of roughly 79,000, 15% have a hit. Calls of active or inactive are those of the source. Cut-off read from the data, not from the text of the source: active = growth inhibition above about 70%; inactive = the rest.
Catalogue of growth inhibition readings, one per entry.

See these solved cases before continuing.
Quick one: growth inhibition of CCCC(=O)OCC(COC(=O)CCC)OC(=O)CCC ? -8.35% (inactive)

Returns the measured growth inhibition for the input compound. Input: Cc1cc2cc(Cl)ccc2nc1C(=O)c1ccccc1 -24.4% (inactive)

Next:
Which growth inhibition is listed for CCc1ccc(OC(=O)CCl)cc1 ? 9.5% (inactive)

* * *

# protocol_summary: NCI Yeast Anticancer Drug Screen. Data for the bub3 strain (AID 167)
# conditions_used: S. cerevisiae bub3 mutant strain, at 50.0 µM, active compounds read high
# Experimental: Growth inhibition of yeast strains with defined genetic alterations is measured as a screen for potential anti-cancer activity. Selected strains with alterations in DNA damage repair or cell cycle control were exposed to compounds and growth inhibition was measured relative to vehicle treated controls. The strain used in this assay is bub3
About 79,000 compounds went through this panel and 15% of them were active in at least one assay; those are over-represented in the sample as a whole. Activity calls are given as the source filed them. Cut-off read from the data, not from the text of the source: active = growth inhibition above about 70%; inactive = the rest.
Each entry below carries its reported growth inhibition.

Example entries and their recorded answers appear below.
Sample CC(=O)Nc1ccc(F)c([N+](=O)[O-])c1 — what was its growth inhibition? -14.9% (inactive)

# lookup: growth inhibition of C[C@@]1(Cc2ccccc2)C(=O)N2[C@@H](CO)C(c3ccccc3)O[C@]2(C)c2ccccc21 (stereo partly specified) -8.8% (inactive)

Would you kindly share the measured growth inhibition for Cc1ccc(C(=O)NCCN2CCCC2)c([N+](=O)[O-])c1OCc1ccccc1 ? -4.85% (inactive)

Which measured growth inhibition value corresponds to Cc1nc2[nH]cc(-c3ccccc3)c2c(=N)n1-c1ccc(F)cc1 ? -7.6% (inactive)

Given the molecule Nc1ccc2ccccc2c1[N+](=O)[O-] , what is its reported growth inhibition? 14.9% (inactive)

Next:
What value of measured growth inhibition is listed for C[n+]1c(C2(O)CCCCCCCCCCC2)sc2ccccc21 ? 1.4% (inactive)

Returns the measured growth inhibition for the input molecule. Input: CCOC(=O)Nc1nc2ccccc2n1CN1CCOCC1 -5.35% (inactive)

Which growth inhibition reading was recorded for the molecule Nc1ccc(C(=O)Nc2ccc3c(ccc4ccccc43)c2)cc1 ? -12.9% (inactive)

Which growth inhibition value belongs to O=C1c2ccccc2C(=O)N1C1(C(=O)O)CCCC1 ? -15.6% (inactive)

# growth inhibition lookup, item CO/C(N)=C(\C#N)N=Cc1ccco1 -4.55% (inactive)

Requested field: growth inhibition. Item: CC(=O)Nc1ccc([N+](=O)[O-])cc1Cl 5.1% (inactive)

Field request: growth inhibition | item: CCNC(=O)OC1C=CS(=O)(=O)C1 (stereo unspecified) 7.95% (inactive)

Fill in the blank: the reported growth inhibition of CCCN(Cc1ccccc1)CC(O)c1ccc(Cl)cc1 (stereo unspecified) is ____. 32.9% (inactive)

# query: growth inhibition of entry COC(=O)C1(Cc2ccc3c(c2)CCC3)Cc2ccccc2C1 29.9% (inactive)

Could you tell me which growth inhibition is on file for CCOC(=O)[C@H]1Nc2ccc(C)cc2C2c3ccccc3CC21 (stereo partly specified) ? -23.3% (inactive)

Item under review: CN(C)CCC(O)c1ccccc1 (stereo unspecified) . Reported growth inhibition? -6.2% (inactive)

Any idea what growth inhibition was measured for CCOc1ccc(/C=C\C(=O)O)cc1 ? 1.25% (inactive)

Form field: reported growth inhibition of CCOC(=O)Cn1c(=O)c2nc(SC)sc2n(CC)c1=S 9.45% (inactive)

Any idea what growth inhibition was measured for CC(=O)OCC1OC(n2c(-c3ccc(Cl)cc3)cc(-c3ccccc3)c(C#N)c2=S)C(OC(C)=O)C(OC(C)=O)C1OC(C)=O (stereo unspecified) ? 17.8% (inactive)

Please report the recorded growth inhibition for CC(=O)Oc1c2oc3cc(O)c(O)cc3c2c(OC(C)=O)c2oc3cc(O)c(O)cc3c12 . -0.8% (inactive)

The measured values listed here are drawn from PubChem BioAssay (NCI).
